As a worked illustration, we turn to MIC data collected for DNA topoisomerase II (Bos taurus).

Answered examples (5):
• CC(=O)OCC1OC(n2c3ccccc3c3c4c(c5c6ccccc6[nH]c5c32)C(=O)N(C)C4=O)C(OC(C)=O)C(OC(C)=O)C1OC(C)=O (stereo in doubt; 4) = > 15 µM
• CC(=O)OCC1OC(n2c3ccccc3c3c4c(c5c6ccccc6[nH]c5c32)C(=O)N(C)C4=O)C(OC(C)=O)C(OC(C)=O)C1OC(C)=O (stereo in doubt; 5) = > 15 µM
• CN1C(=O)c2c(c3c4ccccc4n(C4OC(CO)C(O)C(O)C4O)c3c3[nH]c4ccccc4c23)C1=O (stereo in doubt; 8) = > 20 µM
• CN1C(=O)c2c(c3c4ccccc4n(C4OC(CO)C(O)C(O)C4O)c3c3[nH]c4ccccc4c23)C1=O (stereo in doubt; 9) = > 20 µM
• CO[C@H]1[C@H](O)[C@@H](O)[C@H](n2c3ccccc3c3c4c(c5c6ccccc6[nH]c5c32)C(=O)NC4=O)O[C@@H]1CO = > 19 µM

Now take the following compound into account.
Param item: CC(=O)OCC1OC(n2c3ccccc3c3c4c(c5c6ccccc6[nH]c5c32)C(=O)N(C)C4=O)C(OC(C)=O)C(OC(C)=O)C1OC(C)=O (stereo in doubt; 6) ; param system: DNA topoisomerase II (Bos taurus); output MIC: > 15 µM
